- Read-out: Cyclin Dependent Kinase Inhibitor 1A (CDKN1A), CDKN1A (gene 1026)
- test.protocol: LTEA_HepaRG_CDKN1A: Life Technologies and Expression Analysis (LTEA) Assay for Cyclin Dependent Kinase Inhibitor 1A (CDKN1A) using HepaRG (AID 2283450)
- assay.conditions: mRNA level, 48 h; actives raise or lower the signal
The source made the active and inactive calls. The calls were made as follows: active = hit-call score of the fitted dose curve at least 0.9, where 1 is the maximum; inactive = score below 0.9.
Please answer using one outcome listed in active, inactive

Problem: // return assay outcome for O=C(Oc1ccc(Br)cc1)N1CCN2CCC1CC2
Result: inactive

====

- Read-out: Macrophage colony-stimulating factor (MCSF), CSF1 (gene 1435)
- test.protocol: BSK_LPS_MCSF: BioMAP Diversity Plus: LPS Assay for Macrophage colony-stimulating factor (MCSF) Biomarker Activity (AID 2283083)
- assay.conditions: primary human HUVEC with PBMC; actives raise or lower the signal
Calls of active or inactive are those of the source. Rule for the calls: active = hit-call score of the fitted dose curve at least 0.9, where 1 is the maximum; inactive = score below 0.9.
Please answer using one outcome listed in active, inactive

INSERT INTO measurements (molecule, group_label) VALUES
  ('O=C(O)C1C2CCC(O2)C1C(=O)O (stereo not given)', 'inactive'),
  ('COc1cc(C=O)cc2c1[C@H](COC(N)=O)[C@]1(OC(C)=O)ON2C[C@H]2[C@@H]1N2C(C)=O', 'active'),
  ('Nc1ccc([N+](=O)[O-])cc1', 'inactive'),
  ('COP(=S)(OC)SCN1C(=O)c2ccccc2C1=O', 'inactive'),
  ('Cc1ccc(N)cc1', 'inactive'),
  ('[O-][Cl+]O', 'inactive');

Problem: // return assay outcome for c1ccc2c(c1)oc1ccccc12
Result: inactive

Problem: // return assay outcome for C1=Cc2cccc3cccc1c23
Result: inactive

Problem: // return assay outcome for Nc1ccc(Oc2ccc(N)cc2)cc1
Result: inactive

Problem: // return assay outcome for O=C1CCCO1
Result: inactive

Problem: // return assay outcome for c1ccc(N=Nc2ccccc2)cc1
Result: inactive

Problem: // return assay outcome for Cc1ccc(N)c(N)c1
Result: active
